- assay-info: protein stability index of a GFP-peptide fusion (yeast GPS) (PSI 1-4); higher = more stable; sorted into four equal gates, so the index is relative within each strain
- experimental-setup: ubr1∆
protein stability index overview
Lab note: jot down the number only; don't add units.

INSERT INTO assay_data (construct_sequence, val) VALUES
  ('MRSKLEKLTLVTLSEIY [CSN9]', 1.79);

get_value(item= SALTSPTDSSKILQKRS [SIR3] , readout=protein stability index) returns 3.04

get_value(item= SGKLRDYQVQGLNWLIS [ISW2] , readout=protein stability index) returns 2.85

====

- assay-info: protein stability index of a GFP-peptide fusion (yeast GPS) (PSI 1-4); higher = more stable; sorted into four equal gates, so the index is relative within each strain
- experimental-setup: ubr1∆
protein stability index overview
Lab note: jot down the number only; don't add units.

Reference set (5 entries):
INSERT INTO assay_data (construct_sequence, val) VALUES
  ('ILNAKYTKETYQSRGID [RPN6]', 2.8),
  ('IELSVPDRQSMDSRVAH [SRB5]', 3.16),
  ('MLGHYLGEFSITYTPVR [RPS15]', 2.86),
  ('VKIGDIEKWTANLLPAR [RPS22A]', 3.17),
  ('NVRDDMKPSDNISTNTN [SSN2]', 3.04);

get_value(item= VFVNTGLQNVRKVRTKK [SWP82] , readout=protein stability index) returns 3.11

get_value(item= LPSHIISTSDVTRIINS [RPL4A] , readout=protein stability index) returns 2.55

get_value(item= YRKTEGIFEKAKAKAVT [YMR153W/NUP53] , readout=protein stability index) returns 2.48

get_value(item= VANSPNKRLDVIDGKLP [YDL088C/ASM4] , readout=protein stability index) returns 2.11
